Test: in vitro
Design: dose or concentration left out as unconfirmed
Details: human, liver microsomes
Description: Intrinsic clearance in human liver microsomes at 10 mM preincubated for 10 mins followed by NADPH addition and measured after 5 to 60 mins by LC-MS analysis
Give measured CLint scaled for each item. Keep answers brief.

Here's what some known entries look like.
O=C(N1CCN(c2ncnc3[nH]nc(Cl)c23)CC1)C1(c2ccc(Cl)c(Cl)c2)CCNCC1: < 8.6 mL/min/kg
O=C(O)Cc1ccccc1Nc1c(Cl)cccc1Cl: 123 mL/min/kg

Below: the item to evaluate.
Return reported CLint scaled; argument: "C[C@]12CC[C@H]3[C@@H](CCC4=CC(=O)CC[C@@]43C)[C@@H]1CC[C@@H]2O"
74 mL/min/kg

###

Biological target: RAC-alpha serine/threonine-protein kinase (Homo sapiens, UniProt P31749)
Sequence (P31749 whole entry): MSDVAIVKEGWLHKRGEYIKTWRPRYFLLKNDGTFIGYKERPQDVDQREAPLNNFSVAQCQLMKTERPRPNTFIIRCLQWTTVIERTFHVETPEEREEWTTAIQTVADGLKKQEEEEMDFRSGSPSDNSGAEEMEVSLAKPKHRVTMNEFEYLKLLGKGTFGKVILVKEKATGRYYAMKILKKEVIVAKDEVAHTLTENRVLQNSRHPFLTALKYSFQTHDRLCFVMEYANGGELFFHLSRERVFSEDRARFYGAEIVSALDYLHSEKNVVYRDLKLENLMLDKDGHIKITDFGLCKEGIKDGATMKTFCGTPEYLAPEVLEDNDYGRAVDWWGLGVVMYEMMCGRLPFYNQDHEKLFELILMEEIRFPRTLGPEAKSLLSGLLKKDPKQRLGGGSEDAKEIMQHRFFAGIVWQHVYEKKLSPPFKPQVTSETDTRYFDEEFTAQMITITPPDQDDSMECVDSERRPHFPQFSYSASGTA
Assay: Inhibition of AKT1 (unknown origin) at 1 uM using biotin-labelled STK as substrate measured after 45 mins by HTRF method relative to control
MEASUREMENT TYPE: inhibition (%)
Numbers only, in %.

Here's what some known entries look like.
O=C(N1CCN(c2ncnc3[nH]cnc23)CC1)C1(c2ccc(F)cc2)CCNCC1: 94.2
O=C(N1CCN(c2ncnc3[nH]ncc23)CC1)C1(c2ccc(F)cc2)CCNCC1: 7.4
O=C(N1CCN(c2ncnc3[nH]nc(Cl)c23)CC1)C1(c2ccc(Cl)cc2)CCNCC1: 91.9

Give inhibition for each of the items listed below.
1. O=C(N1CCN(c2ncnc3[nH]ncc23)CC1)C1(c2ccc(Cl)c(Cl)c2)CCNCC1
2. O=C(N1CCN(c2ncnc3[nH]nc(Cl)c23)CC1)C1(c2ccc(Br)cc2)CCNCC1
3. O=C(N1CCN(c2ncnc3[nH]ncc23)CC1)C1(c2ccc(Cl)cc2)CCNCC1

52.1
95.4
38.7

Give inhibition for each of the items listed below.
1. O=C(N1CCN(c2ncnc3ccccc23)CC1)C1(c2ccc(Cl)c(Cl)c2)CCNCC1
2. O=C(N1CCN(c2ncnc3[nH]nc(Cl)c23)CC1)C1(c2ccc(Cl)c(Cl)c2)CCNCC1

1. 21.9
2. 94.3

Give inhibition for each of the items listed below.
1. O=C(N1CCN(c2ncnc3[nH]nc(Br)c23)CC1)C1(c2ccc(Br)cc2)CCNCC1
2. O=C(N1CCN(c2ncnc3ccccc23)CC1)C1(c2ccc(F)cc2)CCNCC1
3. O=C(N1CCN(c2ncnc3[nH]nc(Br)c23)CC1)C1(c2ccc(F)cc2)CCNCC1
4. O=C(N1CCN(c2ncnc3[nH]cnc23)CC1)C1(c2ccc(Cl)c(Cl)c2)CCNCC1
5. O=C(N1CCN(c2ncnc3[nH]nc(Br)c23)CC1)C1(c2ccc(Cl)cc2)CCNCC1

1: 96.5; 2: 23; 3: 93.2; 4: 51.4; 5: 96.7

Give inhibition for each of the items listed below.
1. O=C(N1CCN(c2ncnc3[nH]ncc23)CC1)C1(c2ccc(Br)cc2)CCNCC1
2. O=C(N1CCN(c2ncnc3[nH]nc(Cl)c23)CC1)C1(c2ccc(F)cc2)CCNCC1

1: 11.6; 2: 86.7

Give inhibition for each of the items listed below.
1. O=C(N1CCN(c2ncnc3[nH]cnc23)CC1)C1(c2ccc(Cl)cc2)CCNCC1
2. CCn1c(-c2nonc2N)nc2c(C#CC(C)(C)O)ncc(OC[C@H]3CCCNC3)c21
3. O=C(N1CCN(c2ncnc3ccccc23)CC1)C1(c2ccc(Cl)cc2)CCNCC1

1: 45.6; 2: 99.5; 3: 34.2

Give inhibition for each of the items listed below.
1. O=C(N1CCN(c2ncnc3ccccc23)CC1)C1(c2ccc(Br)cc2)CCNCC1
2. O=C(N1CCN(c2ncnc3[nH]nc(Br)c23)CC1)C1(c2ccc(Cl)c(Cl)c2)CCNCC1
3. O=C(N1CCN(c2ncnc3[nH]cnc23)CC1)C1(c2ccc(Br)cc2)CCNCC1

[6.1, 93.8, 68]
